Observed property: IC50 (nM)
Quick reminder: number only, in nM, skip the unit.

What is its IC50 for UniProtKB O60674? Entry: `CN(c1ncnc2[nH]ccc12)[C@H]1CC[C@H](NC(=O)NCC(F)(F)F)CC1`
Sequence (O60674 whole entry): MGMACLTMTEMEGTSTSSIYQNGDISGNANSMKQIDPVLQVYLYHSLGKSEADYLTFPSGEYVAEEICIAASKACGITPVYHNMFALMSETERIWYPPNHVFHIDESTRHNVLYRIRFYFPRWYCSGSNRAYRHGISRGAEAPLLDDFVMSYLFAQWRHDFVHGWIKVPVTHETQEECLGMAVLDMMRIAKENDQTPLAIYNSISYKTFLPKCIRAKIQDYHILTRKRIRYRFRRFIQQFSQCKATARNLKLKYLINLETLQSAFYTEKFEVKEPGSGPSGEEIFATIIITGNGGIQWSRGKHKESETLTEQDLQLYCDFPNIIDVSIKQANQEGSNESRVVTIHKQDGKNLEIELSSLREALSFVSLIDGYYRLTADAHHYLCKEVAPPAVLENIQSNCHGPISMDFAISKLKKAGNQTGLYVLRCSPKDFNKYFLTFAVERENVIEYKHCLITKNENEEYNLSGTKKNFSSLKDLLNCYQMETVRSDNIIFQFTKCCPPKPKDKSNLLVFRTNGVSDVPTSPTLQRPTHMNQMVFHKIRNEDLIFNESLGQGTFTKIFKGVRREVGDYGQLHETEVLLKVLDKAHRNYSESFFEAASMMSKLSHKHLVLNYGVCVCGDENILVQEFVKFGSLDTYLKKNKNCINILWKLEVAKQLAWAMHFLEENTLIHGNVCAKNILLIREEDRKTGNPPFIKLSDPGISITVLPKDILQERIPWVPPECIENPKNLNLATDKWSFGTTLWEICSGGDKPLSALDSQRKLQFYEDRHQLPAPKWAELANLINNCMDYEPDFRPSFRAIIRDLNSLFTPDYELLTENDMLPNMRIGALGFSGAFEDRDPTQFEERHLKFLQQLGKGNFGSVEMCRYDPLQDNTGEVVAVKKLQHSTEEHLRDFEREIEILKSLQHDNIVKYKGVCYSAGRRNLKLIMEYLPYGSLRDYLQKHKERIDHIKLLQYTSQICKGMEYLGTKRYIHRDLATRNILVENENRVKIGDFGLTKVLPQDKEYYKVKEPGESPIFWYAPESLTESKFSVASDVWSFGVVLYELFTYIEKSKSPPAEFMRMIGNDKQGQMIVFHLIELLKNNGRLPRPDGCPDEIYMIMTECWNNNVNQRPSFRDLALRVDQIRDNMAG
14

Give the reported IC50 for CNS(=O)(=O)C[C@H]1CC[C@H](N(C)c2ncnc3[nH]ccc23)CC1 [Oclacitinib, reference compound] (system: UniProtKB O60674).
9.3

UniProtKB O60674 / IC50 / `CN(c1ncnc2[nH]ccc12)[C@H]1CC[C@H](NC(=O)NCC#N)CC1` : value?
18

Recall the recorded IC50 for `CCCNC(=O)N[C@H]1CC[C@@H](N(C)c2ncnc3[nH]ccc23)CC1` with UniProtKB O60674 and state it.
70
